- Measurement notes: Cytotoxicity against african green monkey Vero cells after 72 hrs
- Assay type: cell-based
- Measurement setup: chlorocebus sabaeus, read-out: MNCC
Endpoint name: MNTC at 72 h
Remember to quote the unit after the number.

Below, 2 compounds whose answers are already recorded.
C=Cc1c(C)c2cc3nc(c4c5[nH]c(cc6nc(cc1[nH]2)C(C)=C6CC)c(C)c5C(=O)[C@]4(O)C(=O)OC)[C@@H](CCC(=O)O/C=C(\C)CCCC(C)CCCC(C)CCCC(C)C)[C@@H]3C (stereo partly drawn) = 6.21 µM
C=Cc1c(C)c2cc3nc(c4c5[nH]c(cc6nc(cc1[nH]2)C(C=O)=C6CC)c(C)c5C(=O)[C@@]4(O)C(=O)OC)[C@@H](CCC(=O)O/C=C(\C)CCCC(C)CCCC(C)CCCC(C)C)[C@@H]3C (stereo partly drawn) [13(2)-HYDROXY-(13(2)-R)-PHAEOPHYTIN B] = 5.89 µM

Qu. MNTC at 72 h for C=Cc1c(C)c2cc3nc(c4c5[nH]c(cc6nc(cc1[nH]2)C(C)=C6CC)c(C)c5C(=O)[C@@]4(O)C(=O)OC)[C@@H](CCC(=O)O/C=C(\C)CCCC(C)CCCC(C)CCCC(C)C)[C@@H]3C (stereo partly drawn) ?
Ans. 6.21 µM
